# Target or system: PRKAR2A
# Condition description: ASO; note: test concentration or dose not given here
These antisense oligonucleotides have a phosphorothioate backbone; sugars and methylation of C are not fully specified.
Property: remaining target (mRNA or protein) (fraction of control); scope: individual sequences
Parameter: remaining target (mRNA or protein) (fraction of control)

* AATGCCCATAACCACAGCAA | 0.39
* TTGAACCTCTGCCCATCCTT | 0.39
* GGATGTGGCTCATGCCGGCG | 0.94
* CGGGATCTGGATGTGGCTCA | 0.81
* ATGTGGCTCATGCCGGCGGC | 0.95
* TGTGGCTGACCAGAAGGTTT | 0.53
* GGCTCATGCCGGCGGCGGCC | 0.62

----------
Property: remaining target (mRNA or protein) (fraction of control); scope: individual sequences
# Target or system: ITGB3
# Condition description: ASO
These antisense oligonucleotides have a phosphorothioate backbone; sugars and methylation of C are not fully specified.
Parameter: remaining target (mRNA or protein) (fraction of control)

- TCACCGTGTCTCCAATCT: 0.53
- AGCTTCTCAGTCATCAGC: 0.28
- AGTCCTCCTCTGAGCACT: 0.55
- CCACGGGCTTTATGGTAA: 0.63

----------
# Target or system: MAP2K4
# Condition description: ASO
These antisense oligonucleotides have a phosphorothioate backbone; sugars and methylation of C are not fully specified.
Property: remaining target (mRNA or protein) (fraction of control); scope: individual sequences
Parameter: remaining target (mRNA or protein) (fraction of control)

- TATTTTAATGTTCACCTCTT: ≥ 1
- TTTAAACACTAGCGATTATG: ≥ 1
- TATCACATCAGTAATCTATT: ≥ 1
- GAGCCGCCGCCGCCGCTCGG: ≥ 1
- TAGAAATGAATTTAAGATGT: ≥ 1
- ATGGGAGAGCTGGGAGTAGC: ≥ 1
- GTTCATCACAAAAGAGCAGG: 0.89
- GATATCAATCGACATACATG: 0.83
- TGATGTAGCAGCGATATCAA: 0.72
- GAGATAATCACTTTTGAATT: ≥ 1
- TGTGTCCTTCCAGGATTTGG: 0.7

----------
# Target or system: RHOG
# Condition description: ASO
These antisense oligonucleotides have a phosphorothioate backbone; sugars and methylation of C are not fully specified.
Property: remaining target (mRNA or protein) (fraction of control); scope: individual sequences
Parameter: remaining target (mRNA or protein) (fraction of control)

- AAAGCGTTAGTTGTGTAG: ≥ 1
- ACATTCACCTTCTCAGGA: 0.8
- ACGTTGGTCTGAGGGTAG: 0.62
- CAATGGAGAAACAGATGA: ≥ 1
- GGGTGTCAGGCTGGGCTC: 0.85
- CAGCAGGATGGGCACATC: 0.8
- CCCTGCTGCGGTGTGATG: 0.56
- TGGAGAAGGGAGAGAGCA: 0.68
- AGGGCAGTGGTGGCACAC: 0.85
- CCACCACGCACTTGATGC: 0.86
- CGCGAGTGCCTGGCCCTG: 0.91
- TTGTGTAGCAGATGAGCA: 0.65
- GTCAGTAGCGGAAAATGG: ≥ 1
- CATTCGAGGTAGCGCACA: 0.61

----------
# Target or system: AKT3
# Condition description: ASO
These antisense oligonucleotides have a phosphorothioate backbone; sugars and methylation of C are not fully specified.
Note: every record was labeled by where its remaining target (mRNA or protein) (fraction of control) sits among low (below 0.2), medium (0.2 to below 0.7), high (0.7 or more)

* CAACCCCTAGGCCCCACC | low
* TCTATAACAGTAGTCCAC | high
* GCCCTGAAAGCAATGATT | medium
* ATTATCAATTTGTGAAGT | high
* TCATACATGACAACCCCT | low
* ACTGAAAAGTTGTTGAGG | high
* CTGAAGAGAGTGTTCGAG | high
* TCATTAACTGGCATTTTG | high
* CTATGAATGAGCCATCTG | high
* GGTTTAAGAGGAGGTACA | high
* GTCCTGGTTGTAGAAAGG | medium
* CTCCACCAAGGCGTTTAT | low
* TCATTTCATACATGACAA | high
* ATATATTCTCCCCTCTTC | high
* TTCCCTTTCCTCTGGAGT | medium
* ATTCTTCATCAAAATATC | high
* AATCCACATCTTGAGGTT | high
* GAGGAAATTTAATGTCTT | high
* AAAGGTAACCTCCCACAC | low
* CTCTTCTAAACCCAACCT | high
* TGTAGAAAGGTAACCTCC | high
* ATATACATCTTGCCAGTT | high
* CCCACACATCATTTCATA | medium
* ACAATTCATTCTCTCCTC | high
* GCGTTTATTTGGATCCTT | high
